system: RS4; 11 leukaemia tumour line; test: In vitro cytotoxicity, Microculture Tetrazolium Assay (MTT); assay type: cell-based; details: Homo sapiens, RS4-11, 48 h, 11 cells, 48 hours exposure
Task for the reader: assign each of the following compounds its reported IC50.
Answers are plain numbers, in nM.

The cases that follow already have their IC50 on record.
Cc1c2cc(n1C)-c1cc(Cl)ccc1CN1CCc3c(cccc3OCCCc3c(cnn3C)N(c3ccc(O)cc3)C2=O)C1 [Example 11] :: 448
Cc1c(N2C(=O)c3cc(n(C)c3C)-c3ccccc3C(=O)N3CCC(CCOc4cc(O)ccc42)CC3)cc(C#N)n1C [Example 28] :: 401

Please state IC50 for every compound in the list that follows.
1. Cc1c2cc(n1C)-c1cc(Cl)ccc1C(=O)N1CCc3c(cccc3OCCCc3cc(C#N)cc(c3)N(c3ccc(O)cc3)C2=O)C1 [Example 9]
2. Cc1c2cc(n1C)-c1cc(Cl)ccc1C(=O)N1Cc3ccccc3C(CCOc3c(cnn3C)N(c3ccc(O)cc3)C2=O)C1 (stereo not shown) [Example 22]
3. Cc1c2cc(n1C)-c1cc(Cl)ccc1C(=O)N1Cc3cccc(c3CC1CN1CCOCC1)OCCCc1c(cnn1C)N(c1ccc(O)cc1)C2=O (stereo not shown) [Example 17]
4. Cc1c2cc(n1C)-c1cc(Cl)ccc1C(=O)N1CCc3c(cccc3C1)CCCOc1cc(C#N)cc(c1)N(c1ccc(O)cc1)C2=O [Example 14]
5. Cc1c2cc(n1C)-c1cc(Cl)ccc1C(=O)N1CCc3c(cccc3OCCCc3c(cc(C#N)n3C)N(c3ccc(O)cc3)C2=O)C1 [Example 18]
6. Cc1c2cc(n1C)-c1cc(Cl)ccc1C(=O)N1Cc3ccccc3C(COc3ccc(C#N)cc3N(c3ccc(O)cc3)C2=O)C1 (stereo not shown) [Example 13]

Response line:
5.24
11.8
62.8
14.6
8.36
239
